# METHOD_SUMMARY: Mouse liver microsomal stability of compound in microsomal protein, PBS buffer pH 7.4, NADPH, glucose-6-phosphate and glucose-6-phosphate dehydrogenase media. Aliquotes were taken at 5 time points and after stopping the reaction, supernatants were analyzed using HPLC coupled with a tandem mass spectrometer. The elimination constant, half-life, and intrinsic clearance are determined as results using linear regression analysis. Note: time not given here.
# Format: ADME, microsomes, Microsome
# MEASUREMENT_CONDITIONS: microsomes
EXPERIMENTAL_ENDPOINT: Remaining (without cofactor) (%)
Express your answer in %, writing the number without its unit.

Solved entries (count: 6):
O=C(Nc1ccc2c(c1)CNC2)c1cc(Cl)cc2[nH]ncc12; 102.129
Nc1ccncc1-c1cc(F)cc(C(=O)Nc2ccc3c(c2)CNC3)c1; 106.991
O=C(Nc1cc2c(c(-c3c[nH]c(=O)c(F)c3)c1)CNC2)c1cc(F)cc2[nH]ncc12; 108.846
CC(C)NC(=O)[C@H](Nc1ccc2c(c1)CNC2)c1cc(Cl)cc2[nH]c(-c3ccccc3)nc12; 98.417
CNC(=O)[C@H](Nc1ccc2c(c1)CNC2)c1cc(Cl)cc(C2CC2)c1; 93.167
O=C(/C=C/c1ccccc1)C(=O)N1CCN(CCc2ccccc2)CC1; 96

For record CO[C@H]1C[C@H](n2ncc3c(C(=O)Nc4ccc5c(c4)CNC5)cc(Cl)cc32)C1 the listed Remaining (without cofactor) is 100.159

For record COCc1cc(Cl)cc([C@H](Nc2ccc3c(c2)CNC3)C(=O)NCC(F)F)c1 the listed Remaining (without cofactor) is 108.672

For record CCCCNC(=O)[C@H](Nc1ccc2c(c1)CNC2)c1cc(Cl)cc(C2CC2)c1 the listed Remaining (without cofactor) is 102.386

----------
# METHOD_SUMMARY: Human liver microsomal stability of compound in microsomal protein, PBS buffer pH 7.4, NADPH, glucose-6-phosphate and glucose-6-phosphate dehydrogenase media. Aliquotes were taken at 5 time points and after stopping the reaction, supernatants were analyzed using HPLC coupled with a tandem mass spectrometer. The elimination constant, half-life, and intrinsic clearance are determined as results using linear regression analysis.
# Type: ADME, microsomes, Microsome
# MEASUREMENT_CONDITIONS: microsomes
Measured Remaining (without cofactor) values are reported for all entries that follow.
Express your answer in %, writing the number without its unit.

Solved entries (count: 3):
O=C(Nc1cc2c(c(C3=CCOCC3)c1)CNC2)c1cc(F)cc2[nH]ncc12; 105.644
O=C(Nc1ccc2c(c1)CNC2)c1cccc2[nH]c(C(F)(F)F)cc12; 74.757
COCCNC(=O)[C@H](Nc1ccc2c(c1)CNC2)c1cc(Cl)cc(C2CC2)c1; 103.817

For record O=C(NCC(F)F)[C@H](Nc1cnc2c(c1)CNC2)c1cc(Cl)cc(C2CC2)c1 the listed Remaining (without cofactor) is 110.51

For record O=C(Nc1cc2c(c(-c3c[nH]c(=O)c(F)c3)c1)CNC2)c1cc(F)cc2[nH]ncc12 the listed Remaining (without cofactor) is 97.444

For record CNC(=O)c1cc(Br)cc([C@H](Nc2ccc3c(c2)CNC3)C(=O)NCC(F)F)c1 the listed Remaining (without cofactor) is 106.229

For record c1ccc2sc(C3CCN(Cc4c[nH]c5ccccc45)CC3)nc2c1 the listed Remaining (without cofactor) is 101.907

For record NCc1cccc(NC(=O)c2cc(OCc3ccccc3)ccc2CNC(=O)OCc2ccccc2)c1 the listed Remaining (without cofactor) is 103

For record O=C(Nc1cc(Cl)cc(C(=O)Nc2cccc(-n3nn[nH]c3=O)c2)c1)OCc1ccccc1 the listed Remaining (without cofactor) is 105.363

For record Cc1cc([C@H](Nc2ccc3c(c2)CNC3)C(=O)NCC(F)F)cc(C(F)(F)F)c1 the listed Remaining (without cofactor) is 105.687

For record Cc1c(C(=O)Nc2cc([C@H]3CCOC3)ccn2)cc(C2CC2)n1C the listed Remaining (without cofactor) is 94.838

For record N#Cc1cccc(-c2nc3c(C(=O)Nc4ccc5c(c4)CNC5)cc(F)cc3[nH]2)c1 the listed Remaining (without cofactor) is 98.721

For record O=C(Nc1cc(Cl)cc(C(=O)Nc2cccc(C3CCNCC3)c2)c1)OCc1ccccc1 the listed Remaining (without cofactor) is 98.201

For record NCc1cccc(NC(=O)c2cccn3cc(CN4CCCC4)nc23)c1 the listed Remaining (without cofactor) is 100.684

For record O=C(O)c1cc(Cl)ccc1S(=O)(=O)NC1CCN(c2nc(C3CC3)cc(C(F)(F)F)n2)CC1 the listed Remaining (without cofactor) is 103.505
